Values compiled from patent US20200362047A1.

# System: T1, human CD137-human Fc chimeric protein (Acro Biosystems cat no. 41B-H5258) (human, UniProt Q07011 24-186)
# T1 construct: Bought protein; The Octet Protein G and Biacore experiments name no catalogue number; also called human CD137Fc recombinant protein; human CD137-Fc recombinant protein; not shown: human IgG1 Fc tag
# Method Notes: BLI (Octet RED384), CD137-Fc amine-coupled to AR2G sensors, 1:1 model
Listed here: items and their measured kon.
The reply should contain only the number, in M⁻¹ s⁻¹.

>  <Binder>
Humabody VH 2.1 (VHH, human single VH domain) VH: EVQLVESGGGLVKPGGSLRVSCAASGFTFSDYYMSWFRQAPGKGLEWVSYISGSGDIIDYADSVKGRFTISRDNAKNSLYLQMNNLRAEDTAVYHCAREDSRLTGTTDFDNWGQGTLVTVSSHHHHHH

>  <Observable>
kon

>  <Output Unit>
M⁻¹ s⁻¹

>  <Quantitative Readout>
770000

$$$$

Query: Name the recorded kon of the item 4.1(PSMA-binding VH)-6GS-2.1 (bispecific antibody, tandem VH, PSMA x CD137; also called 4.1-6GS-2.1; not shown: His tag) EVQLVESGGGVVQPGRSLRLSCAASGFSFSGYGMHWVRQAPGKGLEWVAYISYDGSNKYYADSVKGRFTISRDNSKNTLYLQMNSLRAEDTAVYYCAKDPAWGLRLGESSSYDFDIWGQGTMVTVSSGGGGSGGGGSGGGGSGGGGSGGGGSGGGGSEVQLVESGGGLVKPGGSLRVSCAASGFTFSDYYMSWFRQAPGKGLEWVSYISGSGDIIDYADSVKGRFTISRDNAKNSLYLQMNNLRAEDTAVYHCAREDSRLTGTTDFDNWGQGTLVTVSS in your answer.
Reply: 580000

Query: Name the recorded kon of the item 4.1(PSMA-binding VH)-6GS-1.1 (bispecific antibody, tandem VH, PSMA x CD137; also called 4.1-6GS-1.1; not shown: His tag) EVQLVESGGGVVQPGRSLRLSCAASGFSFSGYGMHWVRQAPGKGLEWVAYISYDGSNKYYADSVKGRFTISRDNSKNTLYLQMNSLRAEDTAVYYCAKDPAWGLRLGESSSYDFDIWGQGTMVTVSSGGGGSGGGGSGGGGSGGGGSGGGGSGGGGSEVQLVESGGGLVQPGGSLRLSCAASGFTFSSHWMTWFRQAPGKGLEWVAHIKEDGSEKYYEDSVEGRFTVSRDNAKNSVYLQMNSLRAEDTAVYYCARGGDGYSDSHFGVDVWGQGTTVTVSS in your answer.
Reply: 410000

Query: Name the recorded kon of the item Humabody VH 1.1 (VHH, human single VH domain; also called single domain antibody 1.1) VH: EVQLVESGGGLVQPGGSLRLSCAASGFTFSSHWMTWFRQAPGKGLEWVAHIKEDGSEKYYEDSVEGRFTVSRDNAKNSVYLQMNSLRAEDTAVYYCARGGDGYSDSHFGVDVWGQGTTVTVSSHHHHHH in your answer.
Reply: 710000
